test system: U-937; assay: Cytotoxicity activity against human U937 cells assessed as reduction in cell viability incubated for 72 hrs by MTT assay; assay type: cell-based; conditions: U-937, 72 h
Checkbox rule: IC50 lower than 20 µM = yes; IC50 not lower than 20 µM = no.

Q: Please let me know if `CC(C)c1ccc2c(c1)CC[C@H]1[C@](C)(CNC(=O)NCCCCCCNC(=O)NC[C@]3(C)CCC[C@]4(C)c5ccc(C(C)C)cc5CC[C@@H]34)CCC[C@]21C` shows IC50 below 20 µM.
Result: no

Q: Please determine if `Cc1ccc(NC(=O)NC[C@]2(C)CCC[C@]3(C)c4ccc(C(C)C)cc4CC[C@@H]23)cc1NC(=O)NC[C@]1(C)CCC[C@]2(C)c3ccc(C(C)C)cc3CC[C@@H]12` is below 20 µM in terms of IC50.
Result: no

Q: Here's an entry: `CC(C)c1ccc2c(c1)CC[C@H]1[C@](C)(CNC(=O)NC3CCCCC3)CCC[C@]21C` . Is its IC50 below 20 µM?
Result: no

Q: Check if IC50 falls below 20 µM for `C=CCNC(=S)NC[C@]1(C)CCC[C@]2(C)c3ccc(C(C)C)cc3CC[C@@H]12` .
Result: no

Q: Given the entry `CNC(=S)NC[C@]1(C)CCC[C@]2(C)c3ccc(C(C)C)cc3CC[C@@H]12` , would its reported IC50 be below 20 µM?
Result: yes

Q: Given the entry `CCNC(=S)NC[C@]1(C)CCC[C@]2(C)c3ccc(C(C)C)cc3CC[C@@H]12` , would its reported IC50 be below 20 µM?
Result: yes

Q: IC50 strictly < 20 µM for this molecule? `CCNC(=O)NC[C@]1(C)CCC[C@]2(C)c3ccc(C(C)C)cc3CC[C@@H]12`
Result: no

Q: Please state whether IC50 is below 20 µM for CC(C)c1ccc2c(c1)CC[C@H]1[C@](C)(CNC(=O)NCC3(C)CC(NC(=O)NC[C@]4(C)CCC[C@]5(C)c6ccc(C(C)C)cc6CC[C@@H]45)CC(C)(C)C3)CCC[C@]21C (stereo partly specified)
Result: no

Q: IC50 under 20 µM? Item: `CC(C)c1ccc2c(c1)CC[C@H]1[C@](C)(CNC(=S)Nc3ccccc3)CCC[C@]21C`
Result: no

Q: Criterion: IC50 strictly below 20 µM. Is it met by `CC(C)c1ccc2c(c1)CC[C@H]1[C@](C)(CNC(=O)Nc3ccc(Cl)cc3)CCC[C@]21C` ?
Result: yes

Q: Please determine if `CC(C)c1ccc2c(c1)CC[C@H]1[C@](C)(CNC(=O)Nc3ccccc3)CCC[C@]21C` is below 20 µM in terms of IC50.
Result: no
